- System: mice
- Method description: Assessment of toxicity in vivo
- Run parameters: mice; scale 0 to 3, or time of death
Listing: Mouse Toxicity of selected compounds
Readout label: Mouse Toxicity

>>> recorded_measurement("O=C(CN1CCN(C(=O)c2ccc(C(F)(F)F)cc2)CC1)N/N=C/c1cc(F)ccc1O")
2
>>> recorded_measurement("O=C(CN1CCN(Cc2ccc(F)cc2)CC1)N/N=C/c1cc(F)ccc1O")
3
>>> recorded_measurement("O=C(CN1CCN(Cc2ccccc2)CC1)N/N=C/c1cc(F)ccc1O")
3
>>> recorded_measurement("C=CCc1cccc(/C=N/NC(=O)CN2CCN(Cc3ccc(C#N)cc3)CC2)c1O")
1
>>> recorded_measurement("C=CCc1cc(F)cc(/C=N/NC(=O)CN2CCN(C(=O)c3ccccc3)CC2)c1O")
2
>>> recorded_measurement("C=CCc1cccc(/C=N/NC(=O)CN2CCN(C(=O)c3ccccc3)CC2)c1O")
3
>>> recorded_measurement("O=C(CN1CCN(Cc2ccc(C(F)(F)F)cc2)CC1)N/N=C/c1cc(F)ccc1O")
3
>>> recorded_measurement("CCCc1cc(F)cc(/C=N/NC(=O)CN2CCN(C(=O)c3ccc(F)cc3)CC2)c1O")
3
>>> recorded_measurement("C=CCc1cc(F)cc(/C=N/NC(=O)CN2CCN(C(=O)c3ccc(F)cc3)CC2)c1O")
3
